Target: cGAS (Homo sapiens, UniProt Q8N884)
Sequence (Q8N884 whole entry): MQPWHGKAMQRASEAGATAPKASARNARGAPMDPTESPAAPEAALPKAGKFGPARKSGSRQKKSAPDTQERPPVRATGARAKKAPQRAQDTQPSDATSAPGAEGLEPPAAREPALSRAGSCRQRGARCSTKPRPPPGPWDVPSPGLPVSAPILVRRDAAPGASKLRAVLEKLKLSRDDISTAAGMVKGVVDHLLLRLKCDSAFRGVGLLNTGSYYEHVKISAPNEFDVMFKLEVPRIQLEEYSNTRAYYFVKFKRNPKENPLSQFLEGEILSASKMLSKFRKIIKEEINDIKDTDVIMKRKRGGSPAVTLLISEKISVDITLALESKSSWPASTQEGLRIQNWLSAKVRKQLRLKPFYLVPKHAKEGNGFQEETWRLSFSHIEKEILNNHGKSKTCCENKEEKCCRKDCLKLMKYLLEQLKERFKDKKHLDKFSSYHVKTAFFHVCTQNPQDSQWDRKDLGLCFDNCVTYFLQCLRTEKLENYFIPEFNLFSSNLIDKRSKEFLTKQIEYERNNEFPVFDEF
Assay: ISD70-driven IP-10 (and IFN-β) production in THP-1 cells, ELISA
Type: cell-based
Design: endogenous in cells; host or cells: THP-1 (undifferentiated)
Conditions: ASO 100 nM; relative to ISD70 only, given as fraction
Protocol: The ability of an oligonucleotide to inhibit cGAS activity can, for example, be analysed by incubating cells which express cGAS with an oligonucleotide, then stimulating said cells with a cGAS agonist (e.g., 70-bp interferon stimulating DNA or ISD70; 45-bp interferon stimulating DNA or ISD45), and analysing the overall cGAS response in the cell population, or analysing the proportion of cells having cGAS-positive activity after a defined period of time. […]
The label is condition met for cGAS 100 nM (averaged IP-10 level relative to ISD70 condition) below 0.6 and condition not met for cGAS 100 nM (averaged IP-10 level relative to ISD70 condition) equal to or exceeding 0.6.

# count of solved cases: 4
sequence_chain	test_target	classification
TGATGGCCTCCCATCT (antisense; LNA-modified, pattern not given here) [HPRT LNA-332 V1]	cGAS (Homo sapiens, UniProt Q8N884)	condition not met
GTCTCTGGAGCTTCCT (antisense; LNA-modified, pattern not given here) [CAMSAP1-2456 LNA V1]	cGAS (Homo sapiens, UniProt Q8N884)	condition not met
ACACTTCGTGGGGTCC (antisense; LNA-modified, pattern not given here) [HPRT LNA-665 V1]	cGAS (Homo sapiens, UniProt Q8N884)	condition met
AGTGTTGAGATACTCG (antisense; LNA-modified, pattern not given here) [EGFR-3652 LNA KL]	cGAS (Homo sapiens, UniProt Q8N884)	condition not met

Say whether its cGAS 100 nM (averaged IP-10 level relative to ISD70 condition) is strictly beneath 0.6. Entry: AGGACTCCAGATGTTT (antisense; LNA-modified, pattern not given here) [HPRT LNA pos cont]
condition not met

###

Molecular target: human TLR9 (Homo sapiens, UniProt Q9NR96)
Construct: HA; host or cells: 293XL-hTLR9-HA (HEK293)
Sequence (Q9NR96 26-1032): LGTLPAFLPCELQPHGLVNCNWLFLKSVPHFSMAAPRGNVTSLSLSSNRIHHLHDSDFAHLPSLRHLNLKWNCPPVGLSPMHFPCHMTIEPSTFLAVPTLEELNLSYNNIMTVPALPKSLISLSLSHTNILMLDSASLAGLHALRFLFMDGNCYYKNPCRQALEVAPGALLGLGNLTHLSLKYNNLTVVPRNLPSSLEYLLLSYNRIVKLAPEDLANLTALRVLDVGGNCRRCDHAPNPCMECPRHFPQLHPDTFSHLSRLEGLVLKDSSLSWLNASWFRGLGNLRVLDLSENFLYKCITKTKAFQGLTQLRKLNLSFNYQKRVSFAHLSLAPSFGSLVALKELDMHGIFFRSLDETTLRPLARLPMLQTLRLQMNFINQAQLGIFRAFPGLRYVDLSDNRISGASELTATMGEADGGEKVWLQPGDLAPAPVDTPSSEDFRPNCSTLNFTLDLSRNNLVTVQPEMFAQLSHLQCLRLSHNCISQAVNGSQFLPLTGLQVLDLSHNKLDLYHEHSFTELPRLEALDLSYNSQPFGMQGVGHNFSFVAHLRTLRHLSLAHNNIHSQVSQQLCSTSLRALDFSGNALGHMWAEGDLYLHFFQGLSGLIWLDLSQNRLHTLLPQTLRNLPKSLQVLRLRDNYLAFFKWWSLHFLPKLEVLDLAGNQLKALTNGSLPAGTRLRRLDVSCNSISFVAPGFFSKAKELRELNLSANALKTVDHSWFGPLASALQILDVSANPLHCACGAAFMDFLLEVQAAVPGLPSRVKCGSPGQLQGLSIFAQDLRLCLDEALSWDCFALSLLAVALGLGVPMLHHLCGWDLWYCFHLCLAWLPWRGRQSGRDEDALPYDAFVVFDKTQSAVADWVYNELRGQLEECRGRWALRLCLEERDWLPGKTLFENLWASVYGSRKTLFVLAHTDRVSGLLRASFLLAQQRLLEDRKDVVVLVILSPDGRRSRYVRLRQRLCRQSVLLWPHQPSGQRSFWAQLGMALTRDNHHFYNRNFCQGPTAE
Experiment: HEK-TLR9 NF-κB-luciferase reporter, ODN2006 stimulation
Format: cell-based
Settings: ASO 100 nM; relative to ODN2006 only, given as fraction
Assignment: determine reported TLR9 100 nM (averaged NF-κB-Luciferase level relative to ODN2006 condition) for the given sequences.
Answers are plain numbers.

These solved cases illustrate the format of a correct answer.
sequence_chain	reported_value
GAGGTCTTGGCTTCGT (antisense; LNA-modified, pattern not given here) [MB21D1-525 LNA V1]	0.897
TTTTGGCTGGGATCAA (antisense; LNA-modified, pattern not given here) [CAMSAP1-4697 LNA KL]	0.985
TGGTCCACAACCCCTT (antisense; LNA-modified, pattern not given here) [MB21D1-697 LNA V1]	1.018
TGGCCTCCCATCTCCT (antisense; LNA-modified, pattern not given here) [HPRT LNA-329 V1]	0.743
ATCTGGCAGCCCATCA (antisense; LNA-modified, pattern not given here) [CTNN2B-2516 LNA V1]	1.248
GTGTCTGGAAGCTTCC (antisense; LNA-modified, pattern not given here) [CTNN2B-809 LNA V1]	0.493

Read the next record carefully.
Please report the measured TLR9 100 nM (averaged NF-κB-Luciferase level relative to ODN2006 condition) for TCGTGGGGTCCTTTTC (antisense; LNA-modified, pattern not given here) [HPRT LNA-660 V1]
0.461
